# SUBJECT OF TEST: IDO1 (Homo sapiens, UniProt P14902)
# Construct: HeLa cells were treated with a test compound in the presence of IFNγ, which induces IDO1 expression; host or cells: H1-HeLa cells, IDO1 induced with IFNγ
# Sequence (P14902 whole entry): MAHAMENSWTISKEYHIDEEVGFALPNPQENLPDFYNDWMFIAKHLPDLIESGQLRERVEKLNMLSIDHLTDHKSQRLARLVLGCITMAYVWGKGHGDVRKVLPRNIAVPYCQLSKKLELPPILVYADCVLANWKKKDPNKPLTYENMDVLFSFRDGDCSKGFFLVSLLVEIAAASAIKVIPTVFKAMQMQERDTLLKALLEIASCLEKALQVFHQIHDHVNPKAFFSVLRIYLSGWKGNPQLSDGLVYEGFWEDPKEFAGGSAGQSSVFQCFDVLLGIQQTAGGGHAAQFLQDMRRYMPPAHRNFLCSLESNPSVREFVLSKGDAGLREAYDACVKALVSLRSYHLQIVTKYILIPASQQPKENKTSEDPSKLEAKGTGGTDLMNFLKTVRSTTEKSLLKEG
# ASSAY PROCEDURE: Cell-based (HeLa) assay for measurement of IDO1 inhibition (kynurenine levels in supernatant after IFNγ induction)
# DETAILS: HeLa cells, IFNγ-induced IDO1, kynurenine in supernatant, 48 hour incubation; geometric mean of a minimum of four determinations
pEC50: −log10 of the molar value.
PARAMETER: pEC50

Consider the following illustrative entries.
Cn1ccnc1CNc1nc2c(F)c(F)cc(/C(=N/O)Nc3ccc(F)c(Cl)c3)c2[nH]1 [Example 349] ... 5.59
O/N=C(\Nc1ccc(F)c(Cl)c1)c1cc(F)c(F)c2nc(NCC3COCCN3)[nH]c12 (centres unmarked) [Example 467] ... 5.67
O/N=C(\Nc1cccc(Br)c1)c1ccnc2nc(NCCN3CCOCC3)[nH]c12 [Example 306] ... 6.17

P: CN1CCCCC1CCNc1nc2c(F)c(F)cc(/C(=N/O)Nc3ccc(F)c(Cl)c3)c2[nH]1 (centres unmarked) [Example 355]
Q: OCC1CCCN1CCNc1nc2c(F)c(F)cc(/C(=N/O)Nc3ccc(F)c(Cl)c3)c2[nH]1 (centres unmarked) [Example 490]
R: O/N=C(\Nc1ccc(F)c(Cl)c1)c1ccnc2nc(NCCNC3CC3)[nH]c12 [Example 402]
stdin: Ascending sort, pEC50. Dear reader, please state the labels in the requested order.
stdout: P, R, Q
(P: 5.69, R: 6.25, Q: 6.73)

###

# SUBJECT OF TEST: IDO1 (Homo sapiens, UniProt P14902)
# Construct: HeLa cells were treated with a test compound in the presence of IFNγ, which induces IDO1 expression; host or cells: H1-HeLa cells, IDO1 induced with IFNγ
# ASSAY PROCEDURE: Cell-based (HeLa) assay for measurement of IDO1 inhibition (kynurenine levels in supernatant after IFNγ induction)
# DETAILS: HeLa cells, IFNγ-induced IDO1, kynurenine in supernatant after 48 hour incubation; geometric mean of a minimum of four determinations
PARAMETER: EC50 (nM)

Worked examples, 5 compounds total:
CNCc1nc2c(F)ccc(/C(=N/O)Nc3ccc(F)c(Cl)c3)c2[nH]1 ... 1290
O/N=C(\Nc1ccc(F)c(Cl)c1)c1ccnc2nc(CCN3CC4CCC(C4)C3)[nH]c12 ... 576
CCC#Cc1cc(N/C(=N\O)c2ccnc3nc[nH]c23)ccc1F ... 2640
NC(=O)CNc1nc2c(F)c(F)cc(/C(=N/O)Nc3ccc(F)c(Cl)c3)c2[nH]1 ... 9950
CNCCNc1nc2nccc(/C(=N/O)Nc3ccc(F)c(Cl)c3)c2[nH]1 ... 2010

A: CCNCCc1nc2nccc(/C(=N/O)Nc3ccc(F)c(Cl)c3)c2[nH]1
B: O/N=C(\Nc1ccc(F)c(Cl)c1)c1ccnc2nc(-c3cccs3)[nH]c12
stdin: So which one has the bigger EC50 here, A or B ? // respond with label for picked entry
stdout: B

###

# SUBJECT OF TEST: IDO1 (Homo sapiens, UniProt P14902)
# Construct: HeLa cells were treated with a test compound in the presence of IFNγ, which induces IDO1 expression; host or cells: H1-HeLa cells, IDO1 induced with IFNγ
# ASSAY PROCEDURE: Cell-based (HeLa) assay for measurement of IDO1 inhibition (kynurenine levels in supernatant after IFNγ induction)
# DETAILS: HeLa cells, IFNγ-induced IDO1, kynurenine in supernatant, 48 hour incubation; geometric mean of a minimum of four determinations
PARAMETER: EC50 (nM)

Answered examples (4):
CN(C)CCNc1nc2c(F)ccc(/C(=N/O)Nc3cccc(Cl)c3)c2[nH]1 [Example 384] ... 290
CN(C)CCSc1nc2nccc(/C(=N/O)Nc3ccc(F)c(Cl)c3)c2[nH]1 [Example 487] ... 1360
CN1CCCCC1Cc1nc2nccc(/C(=N/O)Nc3ccc(F)c(Cl)c3)c2[nH]1 (centres unmarked) [Example 305] ... 3490
O/N=C(\Nc1ccc(F)c(Cl)c1)c1cc(F)c(F)c2nc(N[C@@H]3CCCNC3)[nH]c12 [Example 446] ... 1490

P: OCCN(CCNc1nc2nccc(/C(=N/O)Nc3ccc(F)c(Cl)c3)c2[nH]1)C1CC1 [Example 407]
Q: CC(C)N(CCNc1nc2nccc(/C(=N/O)Nc3ccc(F)c(Cl)c3)c2[nH]1)C1CC1 [Example 406]
stdin: For the pair P and Q , which member has the lower EC50 number? Kindly give the label for the entry you pick.
stdout: Q
